assay: Cytotoxicity against […] BV2 cells assessed as cell viability at 100 uM after 24 hrs by MTT assay; type: cell-based; settings: read-out: Activity
Each entry below carries its reported viability at 24 h, 100 µM.

{"columns": ["cpdSmiles", "viability at 24 h, 100 µM"],
 "data": [
  ["O=S(=O)(/C=C/c1ccc(O)c(O)c1)CCCC1CCCC1", "72.4%"],
  ["CCCCCCCCCCCS(=O)(=O)/C=C/c1ccc(O)c(O)c1", "23.2%"],
  ["O=S(=O)(/C=C/c1ccc(O)c(O)c1)CCCCCCCCCO", "54.4%"],
  ["O=S(=O)(/C=C/c1ccc(O)c(O)c1)CCCCCCCO", "72%"],
  ["O=S(=O)(/C=C/c1ccc(O)c(O)c1)CCC1CCCCC1", "62.6%"],
  ["O=S(=O)(/C=C/c1ccc(O)c(O)c1)CCCCCCCCCCCO", "50.4%"]
]}

----------
assay: Cytotoxicity against […] BV2 cells assessed as cell viability at 100 uM after 24 hrs by MTT assay; type: cell-based; details: read-out: Activity
Measured viability at 24 h, 100 µM of individual entries
valueType: viability at 24 h, 100 µM

{"columns": ["molecule", "valueType", "endpointResult"],
 "data": [
  ["O=S(=O)(/C=C/c1ccc(O)c(O)c1)CC1CCCO1 (stereo not given)", "viability at 24 h, 100 µM", "93.9%"],
  ["O=S(=O)(/C=C/c1ccc(O)c(O)c1)CC1CCCCO1 (stereo not given)", "viability at 24 h, 100 µM", "78.8%"],
  ["CCCCCCCS(=O)(=O)/C=C/c1ccc(O)c(O)c1", "viability at 24 h, 100 µM", "52.5%"],
  ["CCCCCCCCS(=O)(=O)/C=C/c1ccc(O)c(O)c1", "viability at 24 h, 100 µM", "63.6%"],
  ["O=S(=O)(/C=C/c1ccc(O)c(O)c1)CC1CCC1", "viability at 24 h, 100 µM", "83.8%"]
]}
